Listing: Amount excreted in urine, 6-9 h of selected compounds
test: Urinary excretion of phenolic metabolites after intake of the GCPE nutraceutical; settings: week 8, interval 6–9 h
Report the value in µmol with no unit label.

[
  {
    "compound": "O=C(/C=C/c1ccc(O)c(O)c1)OC1[C@H](O)CC(O)(C(=O)O)C[C@H]1O (stereo partly drawn)",
    "unit_symbol": "µmol",
    "reading": 0.06
  },
  {
    "compound": "O=C(O)CCc1ccc(OS(=O)(=O)O)c(O)c1 [DHCA-4′-sulfate]",
    "unit_symbol": "µmol",
    "reading": 0.5
  },
  {
    "compound": "O=C(O)c1cccc(O)c1 [3-Hydroxybenzoic acid]",
    "unit_symbol": "µmol",
    "reading": 0.11
  },
  {
    "compound": "O=C(O)CCc1ccc(O[C@@H]2O[C@H](C(=O)O)[C@@H](O)[C@H](O)[C@H]2O)cc1 [DHCoA-4′-glucuronide, 3-(Phenyl)propanoic acid-4′-glucuronide]",
    "unit_symbol": "µmol",
    "reading": 0.56
  },
  {
    "compound": "COc1cc(C=CC(=O)O)ccc1OS(=O)(=O)O [FA-4′-sulfate, 3′-Methoxycinnamic acid-4′-sulfate]",
    "unit_symbol": "µmol",
    "reading": 7
  },
  {
    "compound": "O=C(/C=C/c1ccc(O)c(O)c1)O[C@@H]1C[C@@](O)(C(=O)O)C[C@@H](O)[C@@H]1O",
    "unit_symbol": "µmol",
    "reading": 0.033
  }
]

In: What value of Amount excreted in urine, 6-9 h has been reported for the following compound? O=C(O)CCc1ccc(O)c(OS(=O)(=O)O)c1 [DHCA-3′-sulfate]
Out: 2.5

In: Try the compound `COc1ccc(CCC(=O)O)cc1O`
Out: 1

In: Try the compound O=C(O)CCc1ccc(O)cc1 [DHCoA, 3-(4′-Hydroxyphenyl)propanoic acid]
Out: 0.9

----------
assay: Urinary excretion of phenolic metabolites after intake of the GCPE nutraceutical; conditions: week 0, interval 9–11 h
So basically, the class depends on measured Amount excreted in urine, 9-11 h, and the ranges are bin 1: < 0.02 µmol; bin 2: ≥ 0.02 µmol and < 0.09 µmol; bin 3: ≥ 0.09 µmol

Before answering, review these 10 worked examples.
[
  {
    "molecule": "COc1cc(CCC(=O)O)ccc1O",
    "label": "bin 2"
  },
  {
    "molecule": "O=C(CCc1ccc(O)c(O)c1)OC1CC(O)(C(=O)O)CC(O)C1O (centres unmarked) [5-Dihydrocaffeoylquinic acid]",
    "label": "bin 1"
  },
  {
    "molecule": "COc1cc(C=CC(=O)O)ccc1OS(=O)(=O)O [FA-4′-sulfate, 3′-Methoxycinnamic acid-4′-sulfate]",
    "label": "bin 3"
  },
  {
    "molecule": "COc1cc(/C=C/C(=O)OC2[C@H](O)CC(O)(C(=O)O)C[C@H]2O)ccc1O (some centres unmarked)",
    "label": "bin 1"
  },
  {
    "molecule": "O=C(O)CCc1ccc(O)cc1 [DHCoA, 3-(4′-Hydroxyphenyl)propanoic acid]",
    "label": "bin 3"
  },
  {
    "molecule": "O=C(CCc1ccc(O)c(O)c1)OC1C(O)CC(O)(C(=O)O)CC1O (centres unmarked) [4-Dihydrocaffeoylquinic acid]",
    "label": "bin 1"
  },
  {
    "molecule": "O=C(O)/C=C/c1ccc(O)c(O)c1 [CA, 3′,4′-Dihydroxycinnamic acid]",
    "label": "bin 2"
  },
  {
    "molecule": "O=C(CCc1ccc(O)c(O)c1)OC1CC(O)(C(=O)O)CC(O)C1O (centres unmarked) [3-Dihydrocaffeoylquinic acid]",
    "label": "bin 2"
  },
  {
    "molecule": "O=C(O)c1ccc(O)c(O)c1 [3,4-Dihydroxybenzoic acid]",
    "label": "bin 1"
  },
  {
    "molecule": "COc1cc(/C=C/C(=O)O[C@@H]2C[C@@](O)(C(=O)O)C[C@@H](O)[C@@H]2O)ccc1O [5-Feruloylquinic acid]",
    "label": "bin 2"
  }
]

In: Returns: class label. Input: COc1ccc(/C=C/C(=O)O)cc1O [iFA, 3′-Hydroxy-4′-methoxycinnamic acid]
Out: bin 2

In: Try the molecule O=C(O)CCc1ccc(O)c(OS(=O)(=O)O)c1 [DHCA-3′-sulfate]
Out: bin 3
